- Read-out: Intercellular Adhesion Molecule 1 (ICAM1), ICAM1 (gene 3383)
- Test Protocol: BSK_KF3CT_ICAM1: BioMAP Diversity Plus: KF3CT Assay for Intercellular Adhesion Molecule 1 (ICAM1) Biomarker Activity (AID 2283067)
- Cond: primary human keratinocytes with fibroblasts; actives raise or lower the signal
The source made the active and inactive calls. Rule for the calls: active = hit-call score of the fitted dose curve at least 0.9, where 1 is the maximum; inactive = score below 0.9.
Allowed answers: label 1 (active), label 0 (inactive)

query: State the result this test recorded for `CCCCCCCCCCCCCC[N+](C)(C)C` .
result: label 1

query: How about this compound: `CC(C)(C)c1ccc(O)c(C(C)(C)C)c1`
result: label 1

query: How about this compound: `c1ccc2c(c1)Cc1ccccc1-2`
result: label 0

New cases:
query: State the result this test recorded for `ClC1=C(Cl)C(Cl)(Cl)C(Cl)=C1Cl` .
result: label 1

query: How about this compound: `c1ccc2c(c1)ccc1ccccc12`
result: label 0

query: How about this compound: `CN1CCN(c2ccccc2/C=C2\SCCN(c3ccc(Cl)c(Cl)c3)C2=O)CC1`
result: label 1

query: How about this compound: `CCN(CC)CCNc1ccc(CNC=O)c2sc3ccc(OC)cc3c(=O)c12`
result: label 1

query: How about this compound: `CN(C)C=O`
result: label 0

query: How about this compound: CCc1nn(C2CCCCC2)c2cc(C3(C#N)CCC(C(=O)O)CC3)ccc12 (stereo not drawn)
result: label 0

* * *

- Read-out: Thrombomodulin, THBD (gene 7056)
- Test Protocol: BSK_CASM3C_Thrombomodulin: BioMAP Diversity Plus: CASM3C Assay for Thrombomodulin Biomarker Activity (AID 2283051);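 note: thrombomodulin protein level measured by ELISA 24 h after dosing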
- Cond: primary human coronary artery smooth muscle cells; actives raise or lower the signal
Calls of active or inactive are those of the source. Rule for the calls: active = hit-call score of the fitted dose curve at least 0.9, where 1 is the maximum; inactive = score below 0.9.
Allowed answers: true = active, false = inactive

query: State the result this test recorded for `CC(=O)CC(C)(C)O` .
result: false

New cases:
query: State the result this test recorded for `c1ccc2c(c1)Cc1ccccc1-2` .
result: false

query: How about this molecule: `CN1CCN(c2ccccc2/C=C2\SCCN(c3ccc(Cl)c(Cl)c3)C2=O)CC1`
result: false

query: How about this molecule: CCC(C)(C)C1CCC(O)CC1 (configuration not stated)
result: false

query: How about this molecule: N#C[C@@H]1CC(F)(F)CN1C(=O)CNC1CC2CCC(C1)N2c1ncccn1 (some centres not stated)
result: false

query: How about this molecule: CCc1nn(C2CCCCC2)c2cc(C3(C#N)CCC(C(=O)O)CC3)ccc12 (configuration not stated)
result: false

query: How about this molecule: `Cc1cc(CCN2CCN(c3nsc4ccccc34)CC2)cc2c1NC(=O)CC2(C)C`
result: true

query: How about this molecule: CCc1ccc(CCOc2ccc(CC3SC(=O)NC3=O)cc2)nc1 (configuration not stated)
result: false

query: How about this molecule: `CCCOC(=O)c1ccc(O)cc1`
result: false

query: How about this molecule: `CC(C)CCCCCCOC(=O)CCCCC(=O)OCCCCCCC(C)C`
result: false

query: How about this molecule: `COc1ccc([N+](=O)[O-])cc1N`
result: false

query: How about this molecule: `CCCCCCCCCCCCCCCS(=O)(=O)Oc1ccccc1`
result: false

* * *

- Read-out: Peroxisomal acyl-coenzyme A oxidase 1 (ACOX1) gene, ACOX1 (gene 51)
- Test Protocol: LTEA_HepaRG_ACOX1: Life Technologies and Expression Analysis (LTEA) Assay for Peroxisomal acyl-coenzyme A oxidase 1 (ACOX1) gene using HepaRG (AID 2283467)
- Cond: mRNA level, 48 h; actives raise or lower the signal
Activity calls are given as the source filed them. Rule for the calls: active = hit-call score of the fitted dose curve at least 0.9, where 1 is the maximum; inactive = score below 0.9.
Allowed answers: Yes = active, No = inactive

query: State the result this test recorded for `NC(=O)N(O)[C@@H]1C=C[C@H](Oc2cccc(Oc3ccc(F)cc3)c2)C1` .
result: Yes

query: How about this compound: `COc1ccc([N+](=O)[O-])cc1N`
result: No

query: How about this compound: `Cc1oc(-c2ccccc2)nc1CCOc1ccc(C[C@H](Nc2ccccc2C(=O)c2ccccc2)C(=O)O)cc1`
result: Yes

New cases:
query: State the result this test recorded for `O=c1c(-c2ccc(O)cc2)coc2cc(O)ccc12` .
result: No

query: How about this compound: `OCCC(F)(F)C(F)(F)C(F)(F)C(F)(F)C(F)(F)C(F)(F)C(F)(F)C(F)(F)F`
result: No

query: How about this compound: `CN(C)C=O`
result: No

query: How about this compound: CCC(C)(C)C1CCC(O)CC1 (configuration not stated)
result: No

query: How about this compound: `CC#C[C@]1(O)CC[C@H]2[C@@H]3CCC4=CC(=O)CCC4=C3[C@@H](c3ccc(N(C)C)cc3)C[C@@]21C`
result: No

query: How about this compound: `C#C[C@]1(O)CC[C@H]2[C@@H]3CCC4=CC(=O)CC[C@@H]4[C@H]3CC[C@@]21C`
result: No

query: How about this compound: `CCC(=C(c1ccc(O)cc1)c1ccc(OCCN(C)C)cc1)c1ccccc1`
result: No

query: How about this compound: `O=[N+]([O-])c1ccc(O)cc1`
result: No

query: How about this compound: `C=C(C)C(=O)OCCC(F)(F)C(F)(F)C(F)(F)C(F)(F)C(F)(F)C(F)(F)F`
result: No

* * *

- Target: Estrogen receptor (Homo sapiens) (UniProt P03372)
- Sequence (P03372 whole entry, looked up): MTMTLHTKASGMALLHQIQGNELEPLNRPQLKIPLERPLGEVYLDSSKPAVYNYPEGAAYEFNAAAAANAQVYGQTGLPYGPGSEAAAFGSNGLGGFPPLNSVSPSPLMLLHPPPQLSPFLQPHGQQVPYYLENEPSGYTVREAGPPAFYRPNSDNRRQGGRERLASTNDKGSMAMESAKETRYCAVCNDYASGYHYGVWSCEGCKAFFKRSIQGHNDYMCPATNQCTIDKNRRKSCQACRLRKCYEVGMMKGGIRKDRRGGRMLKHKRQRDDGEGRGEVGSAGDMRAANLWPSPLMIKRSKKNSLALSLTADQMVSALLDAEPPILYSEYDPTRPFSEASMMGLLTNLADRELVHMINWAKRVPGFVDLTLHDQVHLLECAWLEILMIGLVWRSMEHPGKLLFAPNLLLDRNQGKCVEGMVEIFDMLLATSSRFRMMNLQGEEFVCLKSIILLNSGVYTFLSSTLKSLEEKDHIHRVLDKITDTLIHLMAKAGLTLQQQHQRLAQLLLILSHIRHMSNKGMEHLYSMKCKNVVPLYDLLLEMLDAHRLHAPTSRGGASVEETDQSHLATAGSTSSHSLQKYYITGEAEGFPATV
- Test Protocol: CCTE_Deisenroth_AIME_384WELL_LUC_Inactive: CCTE's 384-well Estrogen Receptor Transactivation Assay without AIME metabolic competence (ERTA luciferase; metabolism negative), Deisenroth Lab (AID 2284038);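 note: VM7Luc4E2 breast cells given medium preincubated 2 h with S9-free microspheres; hits raise estrogen receptor luciferase signal so potencies reflect agonists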
Records with an inconclusive call do not appear. Activity calls are given as the source filed them. Rule for the calls: active = hit-call score of the fitted dose curve at least 0.9, where 1 is the maximum; inconclusive = response in the unintended direction; inactive = score below 0.9.
Allowed answers: true (1) (active), false (0) (inactive)

query: State the result this test recorded for N#C[C@@H]1CC(F)(F)CN1C(=O)CNC1CC2CCC(C1)N2c1ncccn1 (stereo not given in full) .
result: false (0)

query: How about this molecule: `CCCCCCCCCCCCCCCS(=O)(=O)Oc1ccccc1`
result: true (1)

query: How about this molecule: `COC(=O)CCCCC(=O)OC`
result: false (0)

query: How about this molecule: `CCCCCCCC(=O)O`
result: false (0)

query: How about this molecule: `Cc1ccc(S(=O)(=O)O)c(C)c1`
result: false (0)

query: How about this molecule: CCCCC(CC)COC(=O)CCCCC(=O)OCc1ccccc1 (stereo not given)
result: false (0)

query: How about this molecule: `CCCCCCC(=O)O`
result: false (0)

query: How about this molecule: `CCCCOCCO`
result: false (0)

In the following, a different molecule is considered.
query: State the result this test recorded for `CC#C[C@]1(O)CC[C@H]2[C@@H]3CCC4=CC(=O)CCC4=C3[C@@H](c3ccc(N(C)C)cc3)C[C@@]21C` .
result: false (0)

* * *

- Target: Cellular tumor antigen p53 (Homo sapiens) (UniProt P04637)
- Sequence (P04637 whole entry, looked up): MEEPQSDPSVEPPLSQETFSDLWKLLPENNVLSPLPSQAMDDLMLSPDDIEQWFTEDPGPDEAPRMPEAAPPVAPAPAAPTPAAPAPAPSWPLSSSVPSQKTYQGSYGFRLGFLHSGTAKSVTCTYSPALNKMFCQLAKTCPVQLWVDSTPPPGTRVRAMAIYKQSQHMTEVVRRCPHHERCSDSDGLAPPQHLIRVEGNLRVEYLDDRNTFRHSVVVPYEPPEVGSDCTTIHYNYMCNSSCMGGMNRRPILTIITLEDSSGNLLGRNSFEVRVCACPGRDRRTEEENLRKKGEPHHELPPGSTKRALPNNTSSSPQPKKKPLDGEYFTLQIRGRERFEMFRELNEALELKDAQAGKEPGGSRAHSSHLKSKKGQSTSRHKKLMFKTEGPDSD
- Test Protocol: TOX21_p53_BLA_p4_ratio: Tox21 HCT-116 p53 Agonism Beta-lactamase Assay, Ratio, Phase 4 (AID 2283601)
Results filed as inconclusive are left out. Calls of active or inactive are those of the source. Rule for the calls: active = hit-call score of the fitted dose curve at least 0.9, where 1 is the maximum; inconclusive = response in the unintended direction; inactive = score below 0.9.
Allowed answers: YES for active, NO for inactive

query: State the result this test recorded for `Nc1cccc2c(N)cccc12` .
result: NO

query: How about this molecule: `CCCOC(=O)c1ccc(O)cc1`
result: NO

query: How about this molecule: `CC(C)(C)CC(C)(C)c1ccc(O)c(-n2nc3ccccc3n2)c1`
result: NO

query: How about this molecule: `c1ccc2c(c1)ccc1ccccc12`
result: NO

query: How about this molecule: CCC(C)(C)C1CCC(O)CC1 (stereo not drawn)
result: NO

New cases:
query: State the result this test recorded for OC1CCC(C2CCCCC2)CC1 (stereo not drawn) .
result: NO

query: How about this molecule: `CCCOc1sc(C(=O)N2CCC(c3cc(CN)ccc3F)CC2)c(C)c1Br`
result: YES

query: How about this molecule: `CN1CCN(c2ccccc2/C=C2\SCCN(c3ccc(Cl)c(Cl)c3)C2=O)CC1`
result: NO

query: How about this molecule: `O=[N+]([O-])c1ccc(O)cc1`
result: NO

query: How about this molecule: `CCCCCCCCCCCCN1CCCC1=O`
result: NO

query: How about this molecule: `Cc1cc(CCN2CCN(c3nsc4ccccc34)CC2)cc2c1NC(=O)CC2(C)C`
result: YES

query: How about this molecule: CC(O)CO (stereo not drawn)
result: NO

query: How about this molecule: CCc1nn(C2CCCCC2)c2cc(C3(C#N)CCC(C(=O)O)CC3)ccc12 (stereo not drawn)
result: YES

query: How about this molecule: `COc1ccc([N+](=O)[O-])cc1N`
result: NO

* * *

- Test Protocol: APR_HepG2_MitoMass_24hr: Apredica 24-hour HepG2 Assay for Mitochondrial Mass (AID 2282912)
- Cond: high-content imaging, actives raise or lower the signal
- Experimental: APR_HepG2_24hr is a cell-based, multiplexed-readout assay that uses HepG2, a human liver cell line, with measurements taken at 24 hours after chemical dosing in a 384-well plate.APR_HepG2_MitoMass_24hr is one of 10 assay component(s) measured or calculated from the APR_HepG2_24hr assay. […] This assay endpoint, APR_HepG2_MitoMass_24hr, was analyzed with bidirectional fitting relative to DMSO as the negative control and baseline of activity. […]
Calls of active or inactive are those of the source. The calls were made as follows: active = hit-call score of the fitted dose curve at least 0.9, where 1 is the maximum; inactive = score below 0.9.
Allowed answers: Y = active, N = inactive

Answered examples (3):
query: State the result this test recorded for `CN1CCN(c2ccccc2/C=C2\SCCN(c3ccc(Cl)c(Cl)c3)C2=O)CC1` .
result: N

query: How about this molecule: `CCCCCCCC(=O)O`
result: N

query: How about this molecule: `CCCCCCCCCCCCc1ccccc1S(=O)(=O)O`
result: N

New cases:
query: State the result this test recorded for `c1ccc2cc3c(ccc4ccccc43)cc2c1` .
result: Y

query: How about this molecule: `CN1CCC[C@H]1c1cccnc1`
result: N

query: How about this molecule: N#C[C@@H]1CC(F)(F)CN1C(=O)CNC1CC2CCC(C1)N2c1ncccn1 (stereo partly drawn)
result: N

query: How about this molecule: `CCC(=C(c1ccc(O)cc1)c1ccc(OCCN(C)C)cc1)c1ccccc1`
result: N
